TEST SUMMARY: Oral bioavailability in rat at 5 mg/kg
Format: ADME, organism-based
CONDITION CONTEXT: in vivo
MEASURED PROPERTY: bioavailability
Could you kindly put the unit after your number?

Briefly, bioavailability measured for "Cn1cc(/C=C2\C(=O)NN=C2c2nccs2)c2c(F)cccc21" : 3%

---

Collected half-life values appear next to each entry.
TEST SUMMARY: Half life in rat at 1 mg/kg, iv
Type: ADME, organism-based
Design: dose 1 mg/kg, route intravenous
CONDITION CONTEXT: in vivo
Please give the number followed by its unit.

# count of solved cases: 3
# ITEM SMILES, half-life
data = [
    ("CCOc1cccc2c1c(/C=C1\\C(=O)NN=C1c1snnc1C)cn2C", "54 min"),
    ("COc1cccc2c1c(/C=C1\\C(=O)NN=C1c1snnc1C)cn2C", "18 min"),
    ("Cn1cc(/C=C2\\C(=O)NN=C2c2nccs2)c2c(F)cccc21", "36 min"),
]

Memo: "Cc1nnsc1C1=NNC(=O)/C1=C\c1cn(C)c2ccc(F)cc12" , reported half-life: 30 min

---

TEST SUMMARY: Volume of distribution in rat at 1 mg/kg, iv
Format: ADME, organism-based
Set-up: dose 1 mg/kg, route intravenous
CONDITION CONTEXT: in vivo, read-out: Vdss
Measured Vd of individual entries
// units = L/kg; emit number, no label

A selection of reference data follows.
# ITEM SMILES, UNIT OF MEASUREMENT, Vd
records = [
    ("CCOc1cccc2c1c(/C=C1\\C(=O)NN=C1c1snnc1C)cn2C", "L/kg", 1.1),
    ("COc1cccc2c1c(/C=C1\\C(=O)NN=C1c1snnc1C)cn2C", "L/kg", 2.2),
    ("Cc1nnsc1C1=NNC(=O)/C1=C\\c1cn(C)c2ccc(F)cc12", "L/kg", 1.1),
]

"Cn1cc(/C=C2\C(=O)NN=C2c2nccs2)c2c(F)cccc21" has a reported Vd of 0.23

---

TEST SUMMARY: Clearance in rat at 1 mg/kg, iv
Format: ADME, organism-based
Design: dose 1 mg/kg, route intravenous
CONDITION CONTEXT: in vivo
MEASURED PROPERTY: clearance (mL/min/kg)
Respond with the bare value in mL/min/kg.

# ITEM SMILES, clearance (mL/min/kg)
data = [
    ("CCOc1cccc2c1c(/C=C1\\C(=O)NN=C1c1snnc1C)cn2C", 15),
    ("Cn1cc(/C=C2\\C(=O)NN=C2c2nccs2)c2c(F)cccc21", 4.6),
    ("Cc1nnsc1C1=NNC(=O)/C1=C\\c1cn(C)c2ccc(F)cc12", 25),
]

Turning now to a further compound:
Looking up "COc1cccc2c1c(/C=C1\C(=O)NN=C1c1snnc1C)cn2C" , I found its clearance recorded as 87

---

TEST SUMMARY: AUC in rat at 5 mg/kg, po
Format: ADME, organism-based, Plasma
Design: dose 5 mg/kg, route oral
CONDITION CONTEXT: plasma
MEASURED PROPERTY: AUC (µg·h/mL)
Give the value, in units of µg·h/mL, as a plain number.

Field AUC (entry "Cn1cc(/C=C2\C(=O)NN=C2c2nccs2)c2c(F)cccc21" ) reads 1.04
